# assay.target: T1, Tim3-ECD-His-Biotin (human, UniProt Q8TDQ0 22-202, biotinylated with BirA Ligase)
# T1 construct: Coated on streptavidin plates; also called human Tim3 (ELISA); Biochem Human
# experiment.notes: ELISA on Tim3-ECD-His-Biotin
parameter: EC50 (µg/mL)

| binder | parameter | value.reported |
| --- | --- | --- |
| anti-TIM3 antibody Tim3_0026 (antibody, V domains shown, Mouse monoclonal from hybridoma) VH: QIQLVQSGPELKKPGETVKISCKASGYTFTDYSMHWVKQAPGRGLKWMGYINTETYEPTFGADFKGRFAFSLDTSATTAYLQINSLKTEDTATFFCGGGGYPAYWGQGTVVIVSA VL: DVLMTQTPLSLPVSLGDQASISCRSSRTILHSSGNTYLEWYLQKPGQSPKLLIYKVSNRFSGVPDRFSGSGSGTDFTLNISRVEAEDLGVYYCFQDSHVPFTFGTGTKLEIK | EC50 | 0.047 |
